Test: Solubility test in water, SGF, FaSSIF and FeSSIF (37° C., HPLC)
Type: physicochemical
Conditions: fasted-state simulated intestinal fluid (FaSSIF), 37 °C, fassif, thermodynamic from solid, Fasted-state simulated intestinal fluid (FaSSIF), 2 h, 37° C.; read-out: Solubility (based on a compound of formula I)
METRIC: solubility at 2 h (µg/mL)
Please state the figure in µg/mL; there is no need to write the unit.

Request: I'd like to know its solubility at 2 h. The compound in question is C[C@@H](O)c1nc2cnc3ccoc3c2n1[C@H]1CC[C@H](CC#N)OC1
Response: 170

###

Assay: Solubility test in water, SGF, FaSSIF and FeSSIF (37° C., HPLC)
Type: physicochemical
Conditions: simulated gastric fluid (SGF), 37 °C, simulated gastric fluid, thermodynamic from solid, Simulated gastric fluid (SGF), 2 h, 37° C.; read-out: Solubility (based on a compound of formula I)
Method: […] The sample concentrations were calculated with an external standard method.
METRIC: solubility at 2 h (mg/mL)
Please state the figure in mg/mL; there is no need to write the unit.

Request: I'd like to know its solubility at 2 h. The molecule in question is C[C@@H](O)c1nc2cnc3ccoc3c2n1[C@H]1CC[C@H](CC#N)OC1
Response: 29.7
